// data source = PubChem BioAssay (NCI)

# Test system: NCI-H522 lung
# ASSAY INFO: NCI-60 one-dose screen, 48 h (100 = growth as untreated, 0 = no growth, -100 = all killed)
# TEST CONDITIONS: 10 µM unless noted
Compounds without any hit were thinned out: in the full panel of roughly 83,000, 20% have a hit.
MEASURED QUANTITY: growth (%)

INSERT INTO assay_data (compound, measured_quantity, measured_result) VALUES
  ('COc1nc(=O)n(C2C=CC(=O)O2)cc1F (stereo not given)', 'growth', 39.1),
  ('CC/C(=C(/c1ccc(Cl)cc1)c1ccc(OCCN2CCOCC2)cc1)c1ccccc1', 'growth', 88.6),
  ('CC/C(=C(/c1ccc(O)cc1)c1ccc(OCCN2CCCCCC2)cc1)c1ccc(Cl)cc1', 'growth', 90.2),
  ('S=c1nc(CS)[nH]c2ccccc12', 'growth', 95.6),
  ('CN(C)C1CCN(C(=O)c2ccc(NC(=O)Nc3ccc(-c4nc(N5CCOCC5)c5cccn5n4)cc3)cc2)CC1', 'growth', 14.6);

###

# Tested on: SR leukemia
# ASSAY INFO: NCI-60 one-dose screen, 48 h (100 = growth as untreated, 0 = no growth, -100 = all killed)
# TEST CONDITIONS: 10 µM unless noted
This is part of a sample that, as a whole, favours compounds with a hit. Of some 83,000 tested, about 20% had one in any assay.
Threshold 30%. growth below it: T. growth at it or above: F.

INSERT INTO results (molecule, target_entity, category_label) VALUES
  ('FC(F)(F)Sc1ccc(/C=C/c2cc(/C=C/c3ccc(SC(F)(F)F)cc3)n(-c3ccccc3)n2)cc1', 'SR leukemia', 'F'),
  ('CCN(CC)/C([O-])=c1\cccc\c1=C1\N=C(c2ccccc2)N=C1[n+]1ccc(-c2ccccc2)cc1', 'SR leukemia', 'F'),
  ('NC1=CC(=O)c2cccnc2C1=O', 'SR leukemia', 'T'),
  ('CC1(Cc2ccccc2)CC2=C(C(=O)O1)C(c1ccccc1)NC(=O)N2 (stereo not given)', 'SR leukemia', 'F');

###

# System: A549/ATCC NSCLC
# ASSAY INFO: NCI-60 one-dose screen, 48 h (100 = growth as untreated, 0 = no growth, -100 = all killed)
# TEST CONDITIONS: 10 µM unless noted
The panel holds about 83,000 compounds, 20% with a hit somewhere; the sample as a whole holds those more often.
MEASURED QUANTITY: growth (%)

INSERT INTO results (chemical_smiles, target_entity, result_units, measured_result) VALUES
  ('CCN(CC)CCOc1ccccc1C', 'A549/ATCC NSCLC', '%', 98.6),
  ('COc1ccc(-c2nnc3n(C)c(=O)c4ccccc4n23)cc1O', 'A549/ATCC NSCLC', '%', 16.5),
  ('COc1ccc(-c2c[nH]c(C(=O)O)c2-c2cc(OC)c(OC)c(OC)c2)cc1', 'A549/ATCC NSCLC', '%', 49.4),
  ('CCCCCCCC/C=C\CCCCCCCCOc1ccccc1CC(=O)NCC[N+]1(C)CCOCC1', 'A549/ATCC NSCLC', '%', 74.4),
  ('O=C(Cn1cc(CN2CCN(c3ccnc4cc(Cl)ccc34)CC2)nn1)Nc1cccc([N+](=O)[O-])c1', 'A549/ATCC NSCLC', '%', 84.8);
